- Test system: Staphylococcus aureus
- assay-method-text: Antibacterial activity against Staphylococcus aureus at 20 ug/ml by agar plate diffusion technique
- Assay type: functional
- experimental-setup: read-out: IZ
recorded-metric: zone of inhibition at 20 µg/mL (mm)
Answers are plain numbers, in mm.

In the examples that follow, each entry is paired with its recorded zone of inhibition at 20 µg/mL.
>>> result_number("COc1ccc2[nH]cc(Cc3nn4c(-c5ccoc5C)nnc4s3)c2c1")
9.1
>>> result_number("COc1ccc(Cl)c(-c2nnc3sc(Cc4c[nH]c5ccccc45)nn23)c1")
7.59
>>> result_number("COc1ccc(Cc2nnc3sc(-c4ccnc5ccccc45)nn23)cc1OC")
12.6
>>> result_number("COc1ccc(Cc2nnc3n2NC(c2cccn2C)S3)cc1OC (stereo not given)")
5.92

// switching to the query molecule
Fill blank: measured zone of inhibition at 20 µg/mL of the molecule `COc1ccc(Cl)c(-c2nnc3sc(Cc4c(C)[nH]c5ccc(OC)cc45)nn23)c1` is ____.
8.12

====

- System: Rattus norvegicus
- assay-method-text: Antiinflammatory activity in Wistar Albino rat assessed as inhibition of carrageenan-induced paw oedema at 20 mg/kg after 1 hr relative to control
- Assay type: functional
For each of the molecules below, state its inhibition in vivo at 20 mg/kg.
Answers are plain numbers, in %.

In the examples that follow, each entry is paired with its recorded inhibition in vivo at 20 mg/kg.
>>> result_number("Cc1occc1-c1nnc2sc(-c3cc(O)nc(O)c3)nn12")
6.25
>>> result_number("Cc1occc1-c1nnc2sc(-c3ccnc(F)c3)nn12")
16.7
>>> result_number("Cc1occc1-c1nnc2sc(-c3ccnc(Cl)c3)nn12")
10.1
>>> result_number("Cc1occc1-c1nnc2n1NC(c1ccc([N+](=O)[O-])o1)S2 (configuration not stated)")
15.6
>>> result_number("COc1ccc(Cc2nnc3sc(-c4cc(O)nc(O)c4)nn23)cc1OC")
10.5
>>> result_number("COc1ccc(Cc2nnc3sc(-c4cc(C)nc5ccccc45)nn23)cc1OC")
10.2

Can you give me inhibition in vivo at 20 mg/kg for all of these, one by one?
1. COc1ccc(Cl)c(-c2nnc3n2NC(c2ccco2)S3)c1 (configuration not stated)
2. Cc1occc1-c1nnc2sc(Cc3c[nH]c4ccccc34)nn12
3. COc1ccc2[nH]c(C)c(Cc3nn4c(Cc5ccc(OC)c(OC)c5)nnc4s3)c2c1
4. COc1ccc(Cc2nnc3sc(-c4cc(-c5ccccc5)nc5ccccc45)nn23)cc1OC
5. CCCCC1C(=O)N(c2ccccc2)N(c2ccccc2)C1=O

13.9
16
10.5
12.3
21.2

Request body: readout inhibition in vivo at 20 mg/kg, system Rattus norvegicus, query `COc1ccc(Cc2nnc3sc(Cc4c[nH]c5ccccc45)nn23)cc1OC` . Return the value.
16.1

====

- Test system: Rattus norvegicus
- assay-method-text: Antiinflammatory activity in Wistar Albino rat assessed as inhibition of carrageenan-induced paw oedema at 20 mg/kg after 1 hr relative to control
- Assay type: functional
recorded-metric: inhibition in vivo at 20 mg/kg (%)
Answers are plain numbers, in %.

In the examples that follow, each entry is paired with its recorded inhibition in vivo at 20 mg/kg.
>>> result_number("COc1ccc(Cc2nnc3n2NC(c2cccn2C)S3)cc1OC (configuration not stated)")
13.4
>>> result_number("Cc1occc1-c1nnc2n1NC(c1ccco1)S2 (configuration not stated)")
16.4
>>> result_number("COc1ccc(Cl)c(-c2nnc3n2NC(c2ccc([N+](=O)[O-])o2)S3)c1 (configuration not stated)")
15.6
>>> result_number("COc1ccc(Cl)c(-c2nnc3sc(-c4ccnc(F)c4)nn23)c1")
18.5
>>> result_number("COc1ccc(Cc2nnc3n2NC(c2ccc([N+](=O)[O-])o2)S3)cc1OC (configuration not stated)")
14.5
>>> result_number("Cc1occc1-c1nnc2sc(-c3ccnc4ccccc34)nn12")
12.5
>>> result_number("COc1ccc(Cc2nnc3sc(-c4ccnc5ccccc45)nn23)cc1OC")
14.6
>>> result_number("COc1ccc(Cc2nnc3n2NC(c2ccc[nH]2)S3)cc1OC (configuration not stated)")
13.2
>>> result_number("COc1ccc(Cc2nnc3sc(-c4ccnc(Cl)c4)nn23)cc1OC")
11.2
>>> result_number("COc1ccc(Cl)c(-c2nnc3sc(-c4cc(C)nc5ccccc45)nn23)c1")
8.68

Can you give me inhibition in vivo at 20 mg/kg for all of these, one by one?
1. COc1ccc(Cl)c(-c2nnc3sc(-c4ccnc5ccccc45)nn23)c1
2. Cc1occc1-c1nnc2sc(-c3cc(-c4ccccc4)nc4ccccc34)nn12
3. COc1ccc(Cl)c(-c2nnc3sc(-c4cc(-c5ccccc5)nc5ccccc45)nn23)c1
4. COc1ccc(Cl)c(-c2nnc3n2NC(c2cccn2C)S3)c1 (configuration not stated)
5. Cc1occc1-c1nnc2n1NC(c1ccc[nH]1)S2 (configuration not stated)
6. COc1ccc2[nH]cc(Cc3nn4c(Cc5ccc(OC)c(OC)c5)nnc4s3)c2c1

11.1
11.8
11.6
14.1
13.7
4.11

Can you give me inhibition in vivo at 20 mg/kg for all of these, one by one?
1. COc1ccc(Cl)c(-c2nnc3sc(-c4ccnc(Cl)c4)nn23)c1
2. COc1ccc2[nH]c(C)c(Cc3nn4c(-c5ccoc5C)nnc4s3)c2c1
3. Cc1occc1-c1nnc2n1NC(c1cccn1C)S2 (configuration not stated)
4. COc1ccc(Cc2nnc3n2NC(c2ccco2)S3)cc1OC (configuration not stated)
5. COc1ccc(Cl)c(-c2nnc3sc(-c4cc(O)nc(O)c4)nn23)c1
6. COc1ccc(Cl)c(-c2nnc3sc(Cc4c[nH]c5ccccc45)nn23)c1

1: 14.4; 2: 19.7; 3: 14.6; 4: 12; 5: 8.35; 6: 8.8
